tested on: Verconica persica (VERPE); assay: Post-emergence herbicidal action against VERPE; format: in vivo; conditions: 320 g/ha, VERPE
reported-endpoint: Post-emergence action against VERPE in % (%)

molecule | assay-system | assay-result
CC(C)OC(=O)COc1nn(-c2ncccc2F)c(-c2ccc(F)nc2)c1C1CC1 [Example I-328] | Verconica persica (VERPE) | 90
CCOC(=O)COc1nn(-c2ncccc2C(F)(F)F)c(-c2ccc(F)nc2)c1Cl [Example I-325] | Verconica persica (VERPE) | 90
CCOC(=O)[C@@H](C)Oc1nn(-c2ncccc2F)c(-c2ccc(F)nc2)c1C(F)(F)F [Example I-308] | Verconica persica (VERPE) | 90
Cc1cccc(-n2nc(OCC(=O)O)c(Br)c2-c2ccc(F)nc2)n1 [Example I-376] | Verconica persica (VERPE) | 80

---

Below, each of the molecules is paired with its reported Post-emergence action against AMARE in % value.
tested on: Amaranthus retroflexus (AMARE); experiment: Post-emergence herbicidal action against AMARE; type: in vivo; details: 320 g/ha, visual rating about 3 weeks after treatment

molecule | Post-emergence action against AMARE in %
COC(=O)[C@@H](C)Oc1nn(-c2ccccn2)c(-c2ccc(Cl)nc2)c1Cl [Example I-237] | 90%
COC(=O)COc1nn(-c2nc(F)ccc2F)c(-c2ccc(F)nc2)c1C1CC1 [Example I-300] | 80%
O=C(O)COc1nn(-c2ncccc2F)c(-c2ccnc(F)c2)c1Br [Example I-139] | 90%
COCCOC(=O)COc1nn(-c2ccccn2)c(-c2ccc(F)nc2)c1Br [Example I-96] | 80%
CCOC(=O)COc1nn(-c2ncccc2C(F)(F)F)c(-c2cncc(F)c2)c1Br [Example I-202] | 80%
CCOC(=O)CSc1nn(-c2ccccn2)c(-c2cncc(F)c2)c1C1CC1 [Example I-156] | 90%
C[C@H](NC(=O)COc1nn(-c2ccnc(F)c2)c(-c2ccc(F)nc2)c1Br)C(=O)O [III-25] | 80%
CCOC(=O)[C@@H](C)Oc1nn(-c2ncccc2F)c(-c2cncc(F)c2)c1C1CC1 [Example I-172] | 80%

---

system: Viola tricolor (VIOTR); test: Post-emergence herbicidal action against VIOTR; assay type: in vivo; settings: 80 g/ha
Measured Post-emergence action against VIOTR in %, listed per entry for reference.

compound | Post-emergence action against VIOTR in % (%)
COC(=O)[C@@H](C)COC(=O)COc1nn(-c2ccccn2)c(-c2cncc(F)c2)c1Br | 80
COC(=O)[C@@H](C)Oc1nn(-c2ncccc2F)c(-c2ccc(F)nc2)c1C(F)(F)F | 80
C[C@@H](Oc1nn(-c2nc(F)ccc2F)c(-c2cncc(F)c2)c1C1CC1)C(=O)O | 80
COC(=O)[C@@H](C)Oc1nn(-c2ccccn2)c(-c2ccc(Cl)nc2)c1Br | 80
COC(=O)CNC(=O)[C@@H](C)Oc1nn(-c2ccccn2)c(-c2cncc(F)c2)c1Br | 80
CCOC(=O)[C@@H](C)Oc1nn(-c2ncccc2F)c(-c2cncc(F)c2)c1Br | 90
O=C(O)COc1nn(-c2ncccc2C(F)(F)F)c(-c2ccc(F)nc2)c1Cl | 90
O=C(O)COc1nn(-c2ccccn2)c(-c2ccc(F)nc2)c1Cl | 80
O=C(COc1nn(-c2ncccc2F)c(-c2ccc(F)nc2)c1C1CC1)OCC1CCCO1 (stereo not drawn) | 80
COC(=O)CCOC(=O)[C@@H](C)Oc1nn(-c2ccccn2)c(-c2ccc(Cl)nc2)c1Br | 80
COC(=O)CSc1nn(-c2ccccn2)c(-c2cncc(F)c2)c1Br | 80
COC(=O)COc1nn(-c2cccnc2C)c(-c2cncc(F)c2)c1Cl | 80
CCOC(=O)[C@@H](C)Oc1nn(-c2ncccc2F)c(-c2cncc(F)c2)c1C1CC1 | 80
CCOC(=O)COc1nn(-c2cccnc2C)c(-c2cncc(F)c2)c1Br | 90
CCOC(=O)COc1nn(-c2ccccn2)c(-c2ccc(Cl)nc2)c1Br | 80
COC(=O)[C@H](C)COC(=O)[C@@H](C)Oc1nn(-c2ccccn2)c(-c2ccc(F)nc2)c1Cl | 90
COC(=O)CNC(=O)[C@@H](C)Oc1nn(-c2ccccn2)c(-c2ccc(F)nc2)c1Cl | 90
COC(=O)COc1nn(-c2nc(F)ccc2F)c(-c2cncc(F)c2)c1Cl | 80
COC(=O)[C@@H](C)Oc1nn(-c2ccnc(Cl)c2)c(-c2ccc(F)nc2)c1Br | 90
COC(=O)[C@@H](C)Oc1nn(-c2ncccc2F)c(-c2ccnc(F)c2)c1I | 80
COC(=O)CCOC(=O)COc1nn(-c2ccccn2)c(-c2ccc(Cl)nc2)c1Br | 80
CCOC(=O)COc1nn(-c2ncccc2F)c(-c2ccc(F)nc2)c1Br | 80
C[C@@H](Oc1nn(-c2ncccc2F)c(-c2cncc(F)c2)c1C1CC1)C(=O)O | 80
C[C@@H](Oc1nn(-c2ccccn2)c(-c2cncc(F)c2)c1Cl)C(=O)O | 80
C[C@@H](Oc1nn(-c2ncccc2F)c(-c2ccc(F)nc2)c1I)C(=O)O | 80
O=C(COc1nn(-c2ncccc2F)c(-c2ccc(F)nc2)c1C1CC1)ON=C1CCCC1 | 90
O=C(O)COc1nn(-c2ccccn2)c(-c2ccc(Cl)nc2)c1Br | 80
COCCOC(=O)COc1nn(-c2ncccc2F)c(-c2ccc(F)nc2)c1C1CC1 | 90
O=C(O)COc1nn(-c2ccccn2)c(-c2ccc(F)nc2)c1C1CC1(F)F (stereo not drawn) | 80
Cc1ncccc1-n1nc(OCC(=O)OCC2CCCO2)c(Br)c1-c1cncc(F)c1 (stereo not drawn) | 90
COC(=O)[C@@H](C)Oc1nn(-c2ncccc2F)c(-c2cncc(F)c2)c1C1CC1 | 90
COC(=O)CCOC(=O)COc1nn(-c2ncccc2F)c(-c2ccc(F)nc2)c1C1CC1 | 80
O=C(O)CSc1nn(-c2ccccn2)c(-c2ccc(F)nc2)c1Br | 80

---

system: Avena fatua (AVEFA); experiment: Pre-emergence herbicidal action against AVEFA; format: in vivo; conditions: 320 g/ha, visual scoring after about 3 weeks vs untreated controls
Overview of reported Pre-emergence action against AVEFA in % across a group of compounds:

compound | measure-unit | Pre-emergence action against AVEFA in %
CCOC(=O)C(C)Oc1nn(-c2ccccn2)c(-c2ccc(F)nc2)c1C(F)(F)F (centres unmarked) | % | 80
COC(=O)[C@@H](C)Oc1nn(-c2nc(F)ccc2F)c(-c2cncc(F)c2)c1C1CC1 | % | 100
COC(=O)[C@H](C)COC(=O)COc1nn(-c2ccccn2)c(-c2cncc(F)c2)c1Cl [Example I-192] | % | 90
COC(=O)CCOC(=O)[C@@H](C)Oc1nn(-c2ccccn2)c(-c2ccc(F)nc2)c1Cl | % | 90
COC(=O)[C@H](C)NC(=O)COc1nn(-c2ccccn2)c(-c2ccc(F)nc2)c1Cl | % | 90
O=C(O)COc1nn(-c2nc(F)ccc2F)c(-c2cncc(F)c2)c1Br | % | 80
C=C(COC(=O)[C@@H](C)Oc1nn(-c2ccccn2)c(-c2ccc(F)nc2)c1Cl)C(=O)OC | % | 90
COC(=O)C(C)NC(=O)[C@@H](C)Oc1nn(-c2ccccn2)c(-c2cncc(F)c2)c1Cl (some centres unmarked) | % | 90

---

test system: Alopecurus myosuroides (ALOMY); assay: Pre-emergence herbicidal action against ALOMY; assay type: in vivo; settings: 320 g/ha; scored visually after about 3 weeks; 100% = plants have died

molecule | measure-unit | Pre-emergence action against ALOMY
O=C(O)COc1nn(-c2nc(F)ccc2F)c(-c2ccc(F)nc2)c1Cl [Example I-337] | % | 90
O=C(O)COc1nn(-c2ncccc2Cl)c(-c2ccc(F)nc2)c1Br [Example I-26] | % | 100
CCOC(=O)[C@@H](C)Oc1nn(-c2ncccc2F)c(-c2ccc(F)nc2)c1C(F)(F)F [Example I-308] | % | 100
C[C@@H](Oc1nn(-c2ccccn2)c(-c2ccc(Cl)nc2)c1Cl)C(=O)O [Example I-238] | % | 90

---

System: Glycine max (GLXMA)
Format: in vivo
Settings: pre-emergence, 80 g/ha, crop plant compatibility, in comparison to untreated controls
Excerpt: Seeds of monocotyledonous and dicotyledonous weed plants and crop plants are placed in plastic or organic planting pots and covered with soil. […] After about 3 weeks, the effect of the preparations is scored visually in comparison with untreated controls as percentages. […]
Each record here notes measured Pre-emergence action against GLXMA in %.

molecule | assay-system | Pre-emergence action against GLXMA in %
O=C(O)CNC(=O)COc1nn(-c2ccnc(F)c2)c(-c2ccc(F)nc2)c1Br [III-26] | Glycine max (GLXMA) | 0%
COC(=O)[C@@H](C)Oc1nn(-c2cccnc2F)c(-c2ccc(F)nc2)c1Br [II-36] | Glycine max (GLXMA) | 0%
COC(=O)CCOC(=O)COc1nn(-c2ccnc(Cl)c2)c(-c2ccc(F)nc2)c1Br [III-19] | Glycine max (GLXMA) | 0%
COC(=O)[C@@H](C)Oc1nn(-c2nc(F)ccc2F)c(-c2ccc(F)nc2)c1C1CC1 [Example I-298] | Glycine max (GLXMA) | 20%
COC(=O)[C@@H](C)Oc1nn(-c2ccccn2)c(-c2ccc(Cl)nc2)c1Br [Example I-242] | Glycine max (GLXMA) | 0%
C[C@H](NC(=O)COc1nn(-c2ccnc(F)c2)c(-c2ccc(F)nc2)c1Br)C(=O)O [III-25] | Glycine max (GLXMA) | 0%
CCOC(=O)CCNC(=O)CSc1nn(-c2ccccn2)c(-c2cncc(F)c2)c1Br [Example I-82] | Glycine max (GLXMA) | 0%
CCOC(=O)COc1nn(-c2ncccc2OC)c(-c2ccc(F)nc2)c1Br [Example I-371] | Glycine max (GLXMA) | 20%
COC(=O)COc1nn(-c2ncccc2OC)c(-c2ccc(F)nc2)c1Cl [Example I-346] | Glycine max (GLXMA) | 0%
CCOC(=O)COc1nn(-c2ncccc2OC)c(-c2ccc(F)nc2)c1I [Example I-386] | Glycine max (GLXMA) | 0%
O=C(COc1nn(-c2ccccn2)c(-c2ccc(F)nc2)c1Br)NS(=O)(=O)CC(F)(F)F [Example I-60] | Glycine max (GLXMA) | 20%
COc1cccnc1-n1nc(OCC(=O)O)c(Br)c1-c1ccc(F)nc1 [Example I-363] | Glycine max (GLXMA) | 0%
COC(=O)COc1nn(-c2ncccc2C(F)(F)F)c(-c2cncc(F)c2)c1Br [Example I-206] | Glycine max (GLXMA) | 10%
C[C@@H](Oc1nn(-c2ccccn2)c(-c2ccc(Cl)nc2)c1Cl)C(=O)O [Example I-238] | Glycine max (GLXMA) | 20%
O=C(O)COc1nn(-c2ccccn2)c(-c2cncc(F)c2)c1C1CC1 [Example I-72] | Glycine max (GLXMA) | 0%
COC(=O)CNC(=O)CSc1nn(-c2ccccn2)c(-c2cncnc2)c1Br [Example I-65] | Glycine max (GLXMA) | 20%
CCOC(=O)C(Oc1nn(-c2ccccn2)c(-c2ccc(F)nc2)c1Br)C(C)C (stereo not drawn) [Example I-349] | Glycine max (GLXMA) | 0%
O=C(O)COc1nn(-c2ccnc(Cl)c2)c(-c2ccc(F)nc2)c1Br [III-23] | Glycine max (GLXMA) | 0%
CCOC(=O)COc1nn(-c2ccc(Br)c(C)n2)c(-c2cncc(F)c2)c1Br [Example I-161] | Glycine max (GLXMA) | 0%
CCOC(=O)C(C)Oc1nn(-c2ccccn2)c(-c2ccc(F)nc2)c1Br (racemic) [Example I-58] | Glycine max (GLXMA) | 0%
COC(=O)CNC(=O)COc1nn(-c2ccccn2)c(-c2ccc(F)nc2)c1C1CC1 [Example I-70] | Glycine max (GLXMA) | 10%
CC(C)C(Oc1nn(-c2ccccn2)c(-c2ccc(F)nc2)c1Br)C(=O)O (stereo not drawn) [Example I-347] | Glycine max (GLXMA) | 10%
CCOC(=O)C[S+]([O-])c1nn(-c2ccccn2)c(-c2cncc(F)c2)c1Cl (stereo not drawn) [Example I-150] | Glycine max (GLXMA) | 0%
COC(=O)CCOC(=O)COc1nn(-c2ccccn2)c(-c2cncc(F)c2)c1Br [Example I-77] | Glycine max (GLXMA) | 0%
